# protocol details: Cytotoxicity against mouse L5178Y cells assessed as cell viability at 10 ug/ml after 24 hrs by MTT assay
# Type: cell-based
# measurement context: read-out: Activity
attribute measured: viability at 24 h, 10 ug/ml (%)
Answer format: numeric, % implied, no suffix.

Exercise: Fill in the blank: the reported viability at 24 h, 10 ug/ml of `COc1cc(O)c(C(=O)O)c(-c2c(C)cc(C(=O)O)oc2=O)c1` is ____.
Key: 99.2

Exercise: Consider the molecule O=C1C=Cc2c3c4c(c(O)ccc4c4ccc(O)c1c24)OC(O)(C(=O)O)C3 (stereo not drawn) and give its measured viability at 24 h, 10 ug/ml.
Key: 87.5

Exercise: Recorded viability at 24 h, 10 ug/ml for O=C1C=Cc2c3c4c(c(O)ccc4c4ccc(O)c1c24)OC(C(=O)O)C3O (stereo not drawn) , please?
Key: 45

* * *

# Tested on: Klebsiella pneumoniae
# protocol details: Antibacterial activity against multidrug-resistant Klebsiella pneumoniae by broth dilution method
# Format: functional, organism-based
Calls of active or inactive are those of the source. No cut-off for these calls is given here.
attribute measured: Activity

Exercise: Please report the recorded Activity for COc1cc(O)c2c(c1)C1C[C@H](O)[C@@H](O)C[C@@]1(C)OC2=O (stereo partly drawn) .
Key: inactive

Exercise: // returns reported Activity for input COc1cc(O)c(C(=O)O)c(-c2c(C)cc(C(=O)O)oc2=O)c1 [ALTERNARIAN ACID]
Key: inactive

Exercise: Data request, read-out Activity, for COc1c(CC(C)O)c2c3c(CC(C)O)c(OC)c(=O)c4c(O)cc5c(c6c(cc(O)c(c1=O)c62)OCO5)c43 (stereo not drawn)
Key: inactive

* * *

# Tested on: Pseudomonas aeruginosa
# protocol details: Antibacterial activity against multidrug-resistant Pseudomonas aeruginosa by broth dilution method
# Type: functional, organism-based
Calls of active or inactive are those of the source. No cut-off for these calls is given here.
attribute measured: Activity

Exercise: Reported Activity, molecule `O=C1C[C@@H](O)[C@@H]2c3ccc(O)c4c3[C@@H](c3ccc(O)c1c32)[C@H](O)CC4=O` : ____
Key: inactive

Exercise: Quick one: Activity of COc1c(CC(C)O)c2c3c(CC(C)O)c(OC)c(=O)c4c(O)cc5c(c6c(cc(O)c(c1=O)c62)OCO5)c43 (stereo not drawn) ?
Key: inactive

Exercise: # query: Activity of entry `O=C1C[C@@H](O)[C@H]2c3c(ccc(O)c31)-c1ccc(O)c3c1[C@]2(O)C=CC3=O`
Key: inactive

* * *

# System: Staphylococcus aureus
# protocol details: Antibacterial activity against methicillin-resistant Staphylococcus aureus by broth dilution method
# Type: functional
The source made the active and inactive calls. No cut-off for these calls is given here.
attribute measured: Activity

Sample records with Activity:
Exercise: Recorded Activity of COc1cc(O)c2c(c1)C1C[C@H](O)[C@@H](O)C[C@@]1(C)OC2=O (stereo not given in full) , please.
Key: inactive

Exercise: Which Activity value is on record for `COc1cc(O)c2c(=O)oc3cc(O)cc(C)c3c2c1` ?
Key: inactive

Exercise: Entry `O=C1C[C@H](O)[C@@H]2c3c(ccc(O)c31)-c1ccc(O)c3c1[C@@]2(O)CCC3=O` : reported Activity = ?
Key: inactive

Exercise: # input compound: COc1c(CC(C)O)c2c3c(CC(C)O)c(OC)c(=O)c4c(O)cc5c(c6c(cc(O)c(c1=O)c62)OCO5)c43 (stereo not given) ; wanted: its Activity
Key: inactive

Exercise: Please report the recorded Activity for COc1c(CC(C)O)c2c3c(CC(C)O)c(C(=O)O)oc4c(O)cc5c(c6c(cc(O)c(c1=O)c62)OCO5)c43 (stereo not given) .
Key: inactive

Exercise: Which measured Activity value corresponds to COc1cc(O)c(C(=O)O)c(-c2c(C)cc(C(=O)O)oc2=O)c1 [ALTERNARIAN ACID] ?
Key: inactive

Exercise: Request the reported Activity associated with `O=C1C[C@@H](O)[C@H]2c3c(ccc(O)c31)-c1ccc(O)c3c1[C@]2(O)C=CC3=O`
Key: inactive

Exercise: Need Activity, item `COc1cc(O)c2c(c1)C1=C[C@H](O)[C@@H](O)C[C@]1(C)OC2=O`
Key: inactive

Exercise: Any idea what Activity was measured for `O=C1C[C@@H](O)[C@@H]2c3ccc(O)c4c3[C@@H](c3ccc(O)c1c32)[C@H](O)CC4=O` ?
Key: inactive

Here's the next entry for you.
Exercise: # query: Activity of entry `Cc1cc(O)cc2oc(=O)c3c(O)cc(O)cc3c12`
Key: inactive
